Molecular target: androgen receptor (AR) (Homo sapiens, UniProt P10275, T878A)
Construct: LNCaP cells expressing ARR2PB-FireflyLuc and CMV-RenillaLuc; endogenous in cells; host or cells: LNCaP cells carrying ARR2PB-FireflyLuc and CMV-RenillaLuc reporters
Sequence (P10275 whole entry T878A): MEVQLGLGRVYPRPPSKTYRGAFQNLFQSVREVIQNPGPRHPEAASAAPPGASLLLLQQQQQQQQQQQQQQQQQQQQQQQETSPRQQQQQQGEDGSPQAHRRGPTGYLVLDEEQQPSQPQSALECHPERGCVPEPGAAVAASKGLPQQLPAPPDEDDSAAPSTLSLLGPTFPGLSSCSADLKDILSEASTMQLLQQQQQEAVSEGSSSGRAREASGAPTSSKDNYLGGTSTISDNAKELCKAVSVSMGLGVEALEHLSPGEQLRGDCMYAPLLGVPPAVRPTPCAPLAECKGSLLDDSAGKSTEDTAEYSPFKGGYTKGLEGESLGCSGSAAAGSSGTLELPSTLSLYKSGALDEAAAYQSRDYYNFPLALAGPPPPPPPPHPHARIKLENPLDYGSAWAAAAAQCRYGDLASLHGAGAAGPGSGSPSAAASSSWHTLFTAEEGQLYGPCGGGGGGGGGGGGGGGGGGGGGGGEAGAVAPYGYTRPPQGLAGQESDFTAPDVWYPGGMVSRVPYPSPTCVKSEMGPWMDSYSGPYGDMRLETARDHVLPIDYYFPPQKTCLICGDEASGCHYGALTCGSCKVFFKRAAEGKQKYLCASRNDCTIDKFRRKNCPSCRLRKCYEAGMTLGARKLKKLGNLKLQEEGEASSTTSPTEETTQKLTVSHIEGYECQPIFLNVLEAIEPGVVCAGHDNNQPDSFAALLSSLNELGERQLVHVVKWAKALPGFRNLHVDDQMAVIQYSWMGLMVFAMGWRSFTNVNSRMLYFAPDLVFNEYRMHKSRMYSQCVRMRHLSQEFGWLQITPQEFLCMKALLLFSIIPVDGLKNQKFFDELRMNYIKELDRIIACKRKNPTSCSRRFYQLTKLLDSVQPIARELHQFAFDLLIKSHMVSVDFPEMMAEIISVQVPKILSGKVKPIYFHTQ
Assay: AR reporter assay in LNCaP cells expressing ARR2PB-FireflyLuc and CMV-RenillaLuc, antagonist mode (% remaining activity, IC50)
Format: cell-based
Details: 48 h at 37° C., class symbols A-D, read-out: IC50
READOUT_LABEL: IC50

CCN(CC(C)(C)O)c1ncc(-c2c[nH]c3c(C#N)cccc23)nc1C ... 1000 to 10000 nM
COc1nc(-c2c[nH]c3ncccc23)cnc1NC1CCN(C(C)=O)C1 (stereo not drawn) ... > 10000 nM

Case COCC(=O)N1CCC(Oc2ncc(-c3c[nH]c4c(C#N)cccc34)nc2C)C1 (stereo not drawn) , androgen receptor (AR) (Homo sapiens, UniProt P10275, T878A), IC50 recorded as 100 to 1000 nM

Attribution: patent US12448368B2
